Please provide measured IC50 for the entries that follow.
# Tested on: PDAC081T cells
# test_description: Cell viability assay (PrestoBlue)
# Type: cell-based
# conditions: Homo sapiens; PDAC081T (classical subtype), 72 h
Give bare numbers, in µM.

{"mol": "FC(F)(F)c1ccc2c(c1)N(CCCN1CCN(CCN3CCCCC3)CC1)c1ccccc1S2", "readout_value": 0.97}
{"mol": "FC(F)(F)c1ccc2c(c1)N(CCCN1CCN(CCCN3CCCCC3)CC1)c1ccccc1S2", "readout_value": 0.78}
{"mol": "FC(F)(F)c1ccc2c(c1)N(CCCN1CCN(CCN3CCCC3)CC1)c1ccccc1S2", "readout_value": 1.12}

Below: the item to evaluate.
// lookup IC50 for FC(F)(F)c1ccc2c(c1)N(CCCN1CCN(CCCN3CCCC3)CC1)c1ccccc1S2 0.98

Source: paper PMC8533202
